# target: Cytochrome P450 2C19 (Homo sapiens) (UniProt P33261)
# Sequence (P33261 whole entry, looked up): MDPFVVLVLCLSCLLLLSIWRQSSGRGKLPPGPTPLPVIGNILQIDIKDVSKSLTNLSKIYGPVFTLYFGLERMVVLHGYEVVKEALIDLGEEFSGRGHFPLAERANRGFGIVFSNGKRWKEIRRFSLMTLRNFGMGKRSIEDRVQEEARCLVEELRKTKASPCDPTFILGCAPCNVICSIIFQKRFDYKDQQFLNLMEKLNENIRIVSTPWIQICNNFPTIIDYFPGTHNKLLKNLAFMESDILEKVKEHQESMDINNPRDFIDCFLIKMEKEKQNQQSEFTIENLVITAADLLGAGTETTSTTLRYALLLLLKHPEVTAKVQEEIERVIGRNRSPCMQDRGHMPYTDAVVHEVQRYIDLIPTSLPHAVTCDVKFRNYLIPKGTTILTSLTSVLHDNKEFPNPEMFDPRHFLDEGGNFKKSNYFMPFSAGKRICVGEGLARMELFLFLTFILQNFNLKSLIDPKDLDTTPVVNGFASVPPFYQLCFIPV
# assay-info: blockers of cytochrome P450 2C19 activity – biochemical, luminescence, ADME assay, primary screen (AID 778)
# run-conditions: CYP2C19 Supersomes, luciferin-H EGE luminescence, 30 min; at 5 µM
The campaign covered roughly 96,000 compounds. About 20,000 (21%) were called active.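 The calls were made as follows: active = CYP2C19 inhibition above a set limit at 5 µM in the primary screen (cut at about 50% in these data); inactive = the rest.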 Not all results are given here.
The categories you may choose from are Y = active, N = inactive

# count of solved cases: 6
CCCCNC(=O)CSc1nccn1Cc1ccccc1    Y
COc1ccc(/C(O)=C2\C(=O)C(=O)N(Cc3ccco3)C2c2ccc(OC)cc2OC)cc1 (stereo not given)    N
COc1ccc(-n2c(Cc3cccn3C)nnc2SCC(=O)Nc2cc(C)cc(C)c2)cc1    N
COC(=O)Cn1nc(-c2ccccc2)c2cc(Cl)ccc21    N
Cc1ccnc(N2CCC(C(=O)NC3CCCCCC3)CC2)n1    Y
Cc1cc(C(=O)OCC(=O)c2c(N)n(C)c(=O)n(C)c2=O)c(C)o1    N

Please state the recorded outcome for this compound: CCOC(=O)c1c(C)[nH]c(C(=O)NCc2ccccc2OC)c1C
N

For O=C(Nc1ccc2c(c1)OCCO2)C1CCCN(c2ncccn2)C1 (stereo not given) , which call appears in the assay record?
N

Give the logged outcome of this assay for the following compound: Cc1cc(-c2ccccc2)nc(N2CCC(C(=O)NC34CC5CC(CC(C5)C3)C4)CC2)n1
N
